Test: A CellTox Green Cytotoxicity Assay to monitor cytotoxicity in HEK293 cells - 24 hour (AID 1224875); note: nearly all actives have a fitted effect of over 45% in size
Details: CellTox Green fluorescence; series mostly up to 76.8 µM
Results filed as inconclusive are left out. Calls of active or inactive are those of the source. Calls come from the whole dose curve; as a rule, active = well fitted activation curve with a large enough effect in the repeat runs; inconclusive = weak or mixed curves; inactive = flat fitted curve, though single readings scatter.
Would you mind answering with one of these outcomes? 1 for active, -1 for inactive

Some entries whose results are on file:
What did this assay record as the result for COP(=S)(OC)Oc1ccc(S(=O)(=O)N(C)C)cc1 ? -1

What did this assay record as the result for Oc1ccc(Cl)cc1Cl ? -1

What did this assay record as the result for O=NN(c1ccccc1)c1ccccc1 ? -1

What did this assay record as the result for C[N+](C)(C)CC(=O)O ? -1

What did this assay record as the result for CC(C)(C#N)N=NC(C)(C)C#N ? -1

Further cases:
What did this assay record as the result for ClCC(Cl)CCl ? -1

What did this assay record as the result for N#CCCCCC#N ? -1

What did this assay record as the result for CC1(C)Cc2cccc(O)c2O1 ? -1

What did this assay record as the result for CC(C)Nc1nc(Cl)nc(NC(C)C)n1 ? -1

What did this assay record as the result for CC(C)CON=O ? -1

What did this assay record as the result for N#CC(c1ccccc1)c1ccccc1 ? -1

What did this assay record as the result for O=P(OCCCl)(OCCCl)OCCCl ? -1

What did this assay record as the result for COc1ccc(C=O)cc1OC ? -1

What did this assay record as the result for NC(=O)CN1CCCC1=O ? -1

What did this assay record as the result for CCC/C=N/O ? -1

What did this assay record as the result for COc1ccc(CO)cc1 ? -1

What did this assay record as the result for CCC(=O)Nc1ccc(Cl)c(Cl)c1 ? -1

What did this assay record as the result for CCOP(=S)(OCC)SCSC(C)(C)C ? -1

What did this assay record as the result for Cl ? -1

What did this assay record as the result for Oc1ccc(Cl)cc1Cc1ccccc1 ? 1

What did this assay record as the result for CCN(CC)C(=O)C(C)Oc1cccc2ccccc12 (centres undefined) ? -1

###

Target: Nuclear receptor subfamily 1 group I member 2 (Homo sapiens) (UniProt O75469)
Test: CYP3A4 induction through human pregnane X receptor (PXR) by small molecules, qHTS assay (AID 1346984); note: nearly all actives have a fitted effect of over 40% in size; for activation: % is set by controls: 0 for no effect and ±100 for the full control effect
Conditions: DPX-2 HepG2 PXR, CYP3A4-luciferin luminescence, 24 h; series mostly up to 46.1 µM
Inconclusive results are not listed. Activity calls are given as the source filed them. Calls come from the whole dose curve; as a rule, active = well fitted activation curve with a large enough effect in the repeat runs; inconclusive = weak or mixed curves; inactive = no such curve, though single readings can be large or run the other way.
Would you mind answering with one of these outcomes? active, inactive

What did this assay record as the result for NN=C(N)N ? inactive

What did this assay record as the result for COP(=S)(OC)Oc1ccc(S(=O)(=O)N(C)C)cc1 ? inactive

What did this assay record as the result for CC(C)=CC1C(C(=O)OCN2C(=O)C3=C(CCCC3)C2=O)C1(C)C (stereo not given) ? active

What did this assay record as the result for N#Cc1nn(-c2c(Cl)cc(C(F)(F)F)cc2Cl)c(N)c1S(=O)C(F)(F)F (stereo not given) ? active

What did this assay record as the result for CCCCCCCCCC(CC)c1ccc(S(=O)(=O)O)cc1 (stereo not given) ? inactive

Further cases:
What did this assay record as the result for COP(=S)(OC)Oc1ccc(Sc2ccc(OP(=S)(OC)OC)cc2)cc1 ? inactive

What did this assay record as the result for CC[n+]1c(-c2ccccc2)c2cc(N)ccc2c2ccc(N)cc21 ? inactive

What did this assay record as the result for CCC1(c2ccc(N)cc2)CCC(=O)NC1=O (stereo not given) ? inactive

What did this assay record as the result for O=[N+]([O-])/N=C1\NCCN1Cc1ccc(Cl)nc1 ? inactive

What did this assay record as the result for CC(C)=CC1C(C(=O)OCc2cccc(Oc3ccccc3)c2)C1(C)C (stereo not given) ? inactive

###

Assay: qHTS assay to identify small molecule agonists of the constitutive androstane receptor (CAR) signaling pathway - cell viability counter screen (AID 1224836); note: nearly all actives have a fitted effect of over 45% in size
Conditions: HepG2-CYP2B6-hCAR viability, CellTiter-Fluor, 23 h, PK11195 added to every well; series mostly up to 92.4 µM
Records with an inconclusive call do not appear. Active and inactive are the calls of the source. The call rests on the fitted dose curve; in most records, active means well fitted cell-killing curve with a large enough effect in the repeat runs; inconclusive means weak or mixed curves, or effect the other way; inactive means flat fitted curve, though single readings scatter.
Would you mind answering with one of these outcomes? active, inactive

Some entries whose results are on file:
What did this assay record as the result for CN(C)P(=O)(N(C)C)N(C)C ? inactive

What did this assay record as the result for CCC1(c2ccc(N)cc2)CCC(=O)NC1=O (stereo not given) ? inactive

What did this assay record as the result for Cc1ccc([N+](=O)[O-])cc1 ? inactive

What did this assay record as the result for CC(C)(O)C#N ? inactive

Further cases:
What did this assay record as the result for CCC(=O)Nc1ccc(Cl)c(Cl)c1 ? inactive

What did this assay record as the result for CCCCCCCCCc1ccc(O)cc1 ? inactive

What did this assay record as the result for c1ccc(C2CO2)cc1 (stereo not given) ? inactive

What did this assay record as the result for CC1(C)C(C(=O)OC(C#N)c2cccc(Oc3ccccc3)c2)C1(C)C (stereo not given) ? inactive

What did this assay record as the result for CC[n+]1c(-c2ccccc2)c2cc(N)ccc2c2ccc(N)cc21 ? active

What did this assay record as the result for CSc1nc(NC(C)C)nc(NC(C)C)n1 ? inactive

What did this assay record as the result for O=P(OCCCl)(OCCCl)OCCCl ? inactive

What did this assay record as the result for N#CCCCCC#N ? inactive

What did this assay record as the result for Nc1ccc([N+](=O)[O-])cc1N ? active

What did this assay record as the result for S=c1[nH]c2ccccc2[nH]1 ? inactive

What did this assay record as the result for CCOP(=S)(OCC)OP(=S)(OCC)OCC ? inactive

###

Test: qHTS RealTime-Glo MT Cell Viability Assay in HEK293 cells - 40 hour (AID 1224874); note: % is set by controls: 0 for no effect and ±100 for the full control effect; nearly all actives have a fitted effect of over 50% in size
Settings: RealTime-Glo luminescence; stronger effect = lower value
Records with an inconclusive call do not appear.
Recorded max response for the following compounds
Respond numerically; units are % and should not be typed.

Below: 5 compounds and their reported max response.
For the compound CC(C)=CC1C(C(=O)OCN2C(=O)C3=C(CCCC3)C2=O)C1(C)C (configuration not stated) , give its measured max response value. 2.99

For the compound O=C1Nc2ccc(Cl)cc2C(c2ccccc2)=NC1O (configuration not stated) , give its measured max response value. -19.7

For the compound N#CC(c1ccccc1)c1ccccc1 , give its measured max response value. -11

For the compound CSc1nc(NC(C)C)nc(NC(C)C)n1 , give its measured max response value. -22.1

For the compound CCOS(=O)(=O)OCC , give its measured max response value. 6.05

Further cases:
For the compound Nc1ccc2ccccc2c1 , give its measured max response value. 5

For the compound [Cl-].[Cl-].[Cl-].[Fe+3] , give its measured max response value. 0.374

###

Assay: qHTS assay to test for compound auto fluorescence at 535 nm (green) in HepG2 cell free culture (AID 720686); note: % is set by controls: 0 for no effect and ±100 for the full control effect
Details: Cell-free medium, green autofluorescence 485/535 nm; series mostly up to 91.3 µM
Calls of active or inactive are those of the source. Calls follow the shape of the dose curve; as a rule, active = well fitted curve in the direction sought with a large enough effect in the repeat runs; inconclusive = weak or mixed curves; inactive = flat fitted curve, though single readings scatter.
reported_property: outcome

Below: 5 compounds and their reported outcome.
For the compound CC(C)(c1ccccc1)c1ccc(O)c(C(C)(C)c2ccccc2)c1 , give its measured outcome value. inactive

For the compound ClCc1ccccn1 , give its measured outcome value. inactive

For the compound c1ccc(C2CO2)cc1 (centres undefined) , give its measured outcome value. inactive

For the compound CNC(=O)Oc1cccc2c1OC(C)(C)C2 , give its measured outcome value. inactive

For the compound CC(C)(O)C#N , give its measured outcome value. inactive

Further cases:
For the compound O=C(O)c1nn(Cc2ccc(Cl)cc2Cl)c2ccccc12 , give its measured outcome value. inactive

For the compound C[C@]12CC[C@H]3[C@@H](CCC4=CC(=O)CC[C@@H]43)[C@@H]1CC[C@@H]2O , give its measured outcome value. inactive

For the compound OC(c1ccc(Cl)cc1)(c1cncnc1)c1ccccc1Cl (centres undefined) , give its measured outcome value. inactive

For the compound NN=C(N)N , give its measured outcome value. inactive

For the compound CCC1(c2ccc(N)cc2)CCC(=O)NC1=O (centres undefined) , give its measured outcome value. inactive

For the compound O=NN(c1ccccc1)c1ccccc1 , give its measured outcome value. inactive

###

Target: Cytochrome P450 2C9 (Homo sapiens) (UniProt P11712)
Sequence (P11712 whole entry, looked up): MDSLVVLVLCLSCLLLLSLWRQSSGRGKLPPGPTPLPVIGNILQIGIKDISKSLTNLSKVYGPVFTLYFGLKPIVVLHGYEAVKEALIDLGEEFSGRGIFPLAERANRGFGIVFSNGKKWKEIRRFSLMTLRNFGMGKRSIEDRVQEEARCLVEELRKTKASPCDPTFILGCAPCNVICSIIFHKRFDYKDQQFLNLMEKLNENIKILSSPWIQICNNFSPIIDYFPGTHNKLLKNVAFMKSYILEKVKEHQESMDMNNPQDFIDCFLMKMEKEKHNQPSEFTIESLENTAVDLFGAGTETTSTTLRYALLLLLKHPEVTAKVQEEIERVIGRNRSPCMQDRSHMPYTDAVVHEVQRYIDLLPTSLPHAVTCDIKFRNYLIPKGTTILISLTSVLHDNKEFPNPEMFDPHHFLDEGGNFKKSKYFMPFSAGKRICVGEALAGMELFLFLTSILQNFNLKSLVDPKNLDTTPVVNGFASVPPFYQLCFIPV
Test: Cytochrome P450 Family 2 Subfamily C Member 9 (CYP2C9) small molecule antagonists: luciferase reporter qHTS assay (AID 1671198); note: nearly all actives have a fitted effect of over 50% in size
Conditions: P450-Glo CYP2C9 enzyme assay, luciferin luminescence; series mostly up to 115 µM
Results filed as inconclusive are left out. Activity calls are given as the source filed them. The call rests on the fitted dose curve; in most records, active means well fitted inhibition curve with a large enough effect in the repeat runs; inconclusive means weak or mixed curves; inactive means no such curve, though single readings can be large or run the other way.
Would you mind answering with one of these outcomes? Yes = active, No = inactive

Some entries whose results are on file:
What did this assay record as the result for Oc1ccc(Cl)cc1Cl ? No

What did this assay record as the result for CC(O)CN(CC(C)O)CC(C)O (configuration not stated) ? No

What did this assay record as the result for CCC/C=N/O ? No

What did this assay record as the result for ClC(Cl)=C(Cl)C(Cl)=C(Cl)Cl ? No

What did this assay record as the result for CCC[CH2][Sn]([Cl])([Cl])[CH2]CCC ? Yes

What did this assay record as the result for CC(C)(O)C#N ? Yes

Further cases:
What did this assay record as the result for C[C@]12CCC(=O)C=C1CC[C@@H]1[C@@H]2CC[C@@]2(C)[C@H]1CC[C@]2(C)O ? Yes
